target: Hepatocyte nuclear factor 6 (Homo sapiens) (UniProt Q9UBC0); assay: ATG_HNF6_CIS: Attagene CIS-FACTORIAL HepG2 Assay for human Hepatocyte Nuclear Factor 6 (HNF6) (AID 2282952); conditions: HepG2 Attagene cis-factorial HNF6 reporter transcription; actives raise or lower the signal
Sequence (Q9UBC0 whole entry, looked up): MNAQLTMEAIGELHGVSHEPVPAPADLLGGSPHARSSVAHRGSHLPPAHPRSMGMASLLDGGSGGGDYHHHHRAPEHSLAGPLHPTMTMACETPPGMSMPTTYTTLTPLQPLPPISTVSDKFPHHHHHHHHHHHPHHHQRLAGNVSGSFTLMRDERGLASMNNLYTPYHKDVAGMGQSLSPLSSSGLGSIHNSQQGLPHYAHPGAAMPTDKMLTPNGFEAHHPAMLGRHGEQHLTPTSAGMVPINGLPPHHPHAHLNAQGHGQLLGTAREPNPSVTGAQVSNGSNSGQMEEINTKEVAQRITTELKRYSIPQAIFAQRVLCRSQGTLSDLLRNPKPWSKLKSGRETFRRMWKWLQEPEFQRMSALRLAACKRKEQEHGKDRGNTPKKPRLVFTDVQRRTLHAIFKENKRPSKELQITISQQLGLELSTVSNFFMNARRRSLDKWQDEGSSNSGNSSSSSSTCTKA
Active and inactive are the calls of the source. How the source made its calls: active means hit-call score of the fitted dose curve at least 0.9, where 1 is the maximum; inactive means score below 0.9.
quantityName: outcome

IN: Data request, read-out outcome, for "CCCCOCCOCCOCc1cc2c(cc1CCC)OCO2"
OUT: inactive

IN: Next compound up: "CCCOC(=O)c1ccc(C(=O)OCCC)nc1"
OUT: inactive

IN: Next compound up: "O=C(Nc1ccc([N+](=O)[O-])cc1Cl)c1cc(Cl)ccc1O"
OUT: inactive

IN: Next compound up: CCOC(=O)C(C)Oc1ccc(Oc2nc3ccc(Cl)cc3o2)cc1 (configuration not stated)
OUT: inactive

---
IN: Data request, read-out outcome, for "COC(=O)CSc1cc(N=c2sc(=O)n3n2CCCC3)c(F)cc1Cl"
OUT: inactive

IN: Next compound up: CC1(C)C(C=C(Cl)Cl)C1C(=O)OCc1cccc(Oc2ccccc2)c1 (configuration not stated)
OUT: inactive

IN: Next compound up: "CC(=O)S[C@@H]1CC2=CC(=O)CC[C@]2(C)[C@H]2CC[C@@]3(C)[C@@H](CC[C@@]34CCC(=O)O4)[C@H]12"
OUT: inactive

IN: Next compound up: "Oc1ccc(C(c2ccc(O)cc2)C(Cl)(Cl)Cl)cc1"
OUT: inactive

IN: Next compound up: "COC(=O)c1cccc(C)c1S(=O)(=O)NC(=O)Nc1nc(OCC(F)(F)F)nc(N(C)C)n1"
OUT: inactive

IN: Next compound up: "COC(=O)c1ccc(CNS(C)(=O)=O)cc1S(=O)(=O)NC(=O)Nc1nc(OC)cc(OC)n1"
OUT: inactive

IN: Next compound up: "C#CCOC(=O)[C@@H](C)Oc1ccc(Oc2ncc(Cl)cc2F)cc1"
OUT: inactive

IN: Next compound up: "CCOC(=O)COc1cc(-n2ncc(C(F)(F)F)c(C)c2=O)c(F)cc1Cl"
OUT: inactive
